Here's a roundup of pIC50 values tested on Tyrosine-protein kinase ABL1 (Homo sapiens, UniProt P00519), taken from various published works.
pIC50: −log10 of the molar value.

Smiles Representation	pIC50
CS(=O)(=O)c1n[nH]c2nc(Nc3ccc(N4CCOCC4)cc3)nc(N[C@H]3CC[C@@H](N)CC3)c12	≥ 8.00
c1csc(Sc2c[nH]c3ncccc23)c1	≥ 5.00
CSc1n[nH]c2nc(Nc3ccc(N4CCOCC4)cc3)nc(Nc3ccc4[nH]c(O)nc4c3)c12	≥ 7.30
Nc1cccc(-c2cnc3[nH]cc(C(=O)c4cccc(O)c4)c3c2)c1	≥ 5.00
Cc1ccc(F)cc1C(=O)c1c[nH]c2ncc(-c3ccsc3)cc12	≥ 5.00
Cc1ccc(C(=O)Nc2ccc(CN3CCN(C)CC3)c(C(F)(F)F)c2)cc1C#Cn1cnc2cc(C(=O)O)ccc21	> 7.70
COc1cccc(C(=O)c2c[nH]c3ncc(-c4cccnc4)cc23)c1	≥ 5.00

Please turn your attention to the following entry.
Give recorded pIC50. Cc1ccccc1C(=O)Nc1n[nH]c2c1CCn1cc(C(=O)N3CCCC3)cc1-2
5.31
